# EXPERIMENTAL_SYSTEM: human CTPS1 (Homo sapiens, UniProt P17812)
# Construct: purchased Proteros biostructures GmbH
# Sequence (P17812 1-591): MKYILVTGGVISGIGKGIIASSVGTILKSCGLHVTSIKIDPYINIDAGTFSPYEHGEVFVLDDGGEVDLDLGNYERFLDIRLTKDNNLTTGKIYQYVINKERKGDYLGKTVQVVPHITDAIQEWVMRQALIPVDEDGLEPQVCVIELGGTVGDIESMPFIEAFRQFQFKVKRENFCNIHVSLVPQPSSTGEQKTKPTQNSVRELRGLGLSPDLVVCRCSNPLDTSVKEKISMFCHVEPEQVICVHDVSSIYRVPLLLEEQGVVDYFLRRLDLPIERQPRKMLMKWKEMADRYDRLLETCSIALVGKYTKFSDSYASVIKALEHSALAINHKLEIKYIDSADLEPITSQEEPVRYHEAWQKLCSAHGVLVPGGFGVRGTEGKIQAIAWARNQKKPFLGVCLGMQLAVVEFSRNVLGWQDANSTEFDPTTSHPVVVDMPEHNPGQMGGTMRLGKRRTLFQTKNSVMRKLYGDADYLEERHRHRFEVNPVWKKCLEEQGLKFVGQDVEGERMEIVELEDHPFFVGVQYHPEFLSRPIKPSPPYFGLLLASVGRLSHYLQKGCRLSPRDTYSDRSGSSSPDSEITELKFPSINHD
# METHOD_DESCRIPTION: Human CTPS1 enzyme inhibition (ADP-Glo Max assay)
# Format: biochemical
# MEASUREMENT_SETUP: Table 23; ADP-Glo Max assay; read-out: CTPS1 (Human CTPS1 Enzyme Inhibition data grouped by potency range, IC50)
# IC50 per record follows

Worked set:
[
  {
    "COMPOUND": "O=C(Cc1ccnc(NS(=O)(=O)C2CC2)n1)Nc1ccc(-c2ccccc2)cc1",
    "EXPERIMENTAL_SYSTEM": "human CTPS1 (Homo sapiens, UniProt P17812)",
    "IC50": "1000 to 10000 nM"
  },
  {
    "COMPOUND": "CCOc1cncc(-c2ccc(NC(=O)C(C)(C)c3cc(C(F)(F)F)nc(NS(=O)(=O)C4CC4)n3)cc2)n1",
    "EXPERIMENTAL_SYSTEM": "human CTPS1 (Homo sapiens, UniProt P17812)",
    "IC50": "100 to 1000 nM"
  },
  {
    "COMPOUND": "CCOc1cncc(-c2ccc(NC(=O)C(C)(C)c3cncc(NS(=O)(=O)C4CC4)n3)nc2)n1",
    "EXPERIMENTAL_SYSTEM": "human CTPS1 (Homo sapiens, UniProt P17812)",
    "IC50": "≤ 100 nM"
  }
]

CCC(C(=O)Nc1ccc(-c2cncc(OCC(F)(F)F)n2)cn1)c1ccnc(NS(=O)(=O)C2CC2)n1 (stereo not shown) has a reported IC50 of ≤ 100 nM

###

# EXPERIMENTAL_SYSTEM: human CTPS1 (Homo sapiens)
# Construct: purchased Proteros biostructures GmbH
# METHOD_DESCRIPTION: Human CTPS1 enzyme inhibition (ADP-Glo Max assay)
# Assay type: biochemical
# MEASUREMENT_SETUP: Table 23; ADP-Glo Max assay; read-out: CTPS1 (Human CTPS1 Enzyme Inhibition data grouped by potency range, IC50)
MEASURED_METRIC: IC50

Answered examples (5):
[
  {
    "MOLECULE": "CCOc1cncc(-c2cc(C)c(NC(=O)C(C)(C)c3ccnc(NS(=O)(=O)C4CC4)n3)cc2F)n1",
    "IC50": "100 to 1000 nM"
  },
  {
    "MOLECULE": "CCOc1cncc(-c2ccc(NC(=O)C(C)(C)c3ccnc(NS(=O)(=O)C4CC4)n3)c(F)c2)n1",
    "IC50": "≤ 100 nM"
  },
  {
    "MOLECULE": "CC(C)(C(=O)Nc1ccc(-c2cncc(C(F)(F)F)c2)cc1)c1ccnc(NS(=O)(=O)C2CC2)n1",
    "IC50": "100 to 1000 nM"
  },
  {
    "MOLECULE": "CCOc1cncc(-c2ccc(NC(=O)C(C)(C)c3ccnc(NS(=O)(=O)C(C)(C)C)n3)cc2)n1",
    "IC50": "1000 to 10000 nM"
  },
  {
    "MOLECULE": "CCOc1cncc(-c2ccc(C(=O)NC(CC)c3cncc(NS(=O)(=O)C4CC4)n3)c(F)c2)n1 (single isomer, unassigned)",
    "IC50": "≤ 100 nM"
  }
]

According to the records, this molecule "COc1cncc(-c2ccc(NC(=O)C(C)(C)c3ccnc(NS(=O)(=O)C4CC4)n3)cc2)n1" displays IC50 of ≤ 100 nM

Entry under test: "CCOc1cncc(-c2ccc(NC(=O)C3(c4ccnc(NS(=O)(=O)C5CC5)n4)CCNCC3)nc2)n1" . Its IC50 was 100 to 1000 nM

###

# reported IC50; entries follow
# EXPERIMENTAL_SYSTEM: human CTPS1 (Homo sapiens, UniProt P17812)
# Construct: purchased Proteros biostructures GmbH
# METHOD_DESCRIPTION: Human CTPS1 enzyme inhibition (ADP-Glo Max assay)
# Type: biochemical
# MEASUREMENT_SETUP: Table 23; ADP-Glo Max assay; read-out: CTPS1 (Human CTPS1 Enzyme Inhibition data grouped by potency range, IC50)

Record excerpt, results attached:
[
  {
    "MOLECULE": "CN(C)c1cncc(-c2ccc(NC(=O)C(C)(C)c3ccnc(NS(=O)(=O)C4CC4)n3)cc2)n1",
    "EXPERIMENTAL_SYSTEM": "human CTPS1 (Homo sapiens, UniProt P17812)",
    "VALUE_REPORTED": "1000 to 10000 nM"
  },
  {
    "MOLECULE": "CCOc1cncc(-c2ccc(NC(=O)C3(c4ccnc(NS(=O)(=O)C5CC5)n4)CCOCC3)cc2)n1",
    "EXPERIMENTAL_SYSTEM": "human CTPS1 (Homo sapiens, UniProt P17812)",
    "VALUE_REPORTED": "≤ 100 nM"
  },
  {
    "MOLECULE": "CCOc1cncc(-c2cnc(NC(=O)C(CC)c3ccnc(NS(=O)(=O)C4CC4)n3)c(C)c2)n1 (stereo not shown)",
    "EXPERIMENTAL_SYSTEM": "human CTPS1 (Homo sapiens, UniProt P17812)",
    "VALUE_REPORTED": "≤ 100 nM"
  },
  {
    "MOLECULE": "CCOc1cncc(-c2ccc(NC(=O)C(F)(F)c3ccnc(NS(=O)(=O)C4CC4)n3)c(F)c2)n1",
    "EXPERIMENTAL_SYSTEM": "human CTPS1 (Homo sapiens, UniProt P17812)",
    "VALUE_REPORTED": "≤ 100 nM"
  },
  {
    "MOLECULE": "CCOc1cncc(-c2ccc(NC(=O)C(C)(C)c3nc(NS(=O)(=O)C4CC4)ncc3C)cc2)n1",
    "EXPERIMENTAL_SYSTEM": "human CTPS1 (Homo sapiens, UniProt P17812)",
    "VALUE_REPORTED": "1000 to 10000 nM"
  },
  {
    "MOLECULE": "Cc1cc(-c2cncc(C(F)(F)F)n2)ccc1NC(=O)C(C)(C)c1ccnc(NS(C)(=O)=O)n1",
    "EXPERIMENTAL_SYSTEM": "human CTPS1 (Homo sapiens, UniProt P17812)",
    "VALUE_REPORTED": "100 to 1000 nM"
  }
]

Proceeding to the next molecule to report its IC50.
IC50 of "CC(C)Oc1cncc(-c2ccc(NC(=O)C(C)(C)c3ccnc(NS(=O)(=O)C4CC4)n3)c(F)c2)c1" , assay on human CTPS1 (Homo sapiens, UniProt P17812), is 100 to 1000 nM

###

Some compounds, each annotated with its measured pIC50.
# EXPERIMENTAL_SYSTEM: human CTPS1 (Homo sapiens)
# Construct: purchased Proteros biostructures GmbH
# METHOD_DESCRIPTION: Human CTPS1 enzyme inhibition (ADP-Glo Max assay)
# Type: biochemical
# MEASUREMENT_SETUP: Table 25; compounds where R1 is substituted by CN; read-out: CTPS1 (Human CTPS1 Enzyme Inhibition data grouped by potency range, IC50)
pIC50: −log10 of the molar value.

[
  {
    "COMPOUND": "CCOc1cncc(-c2ccc(NC(=O)C3(c4ccnc(NS(=O)(=O)CC#N)n4)CCOCC3)nc2)n1",
    "pIC50": "≥ 7.00"
  }
]

Now for another entry.
Record "CCOc1cncc(-c2ccc(NC(=O)C3(c4ccnc(NS(=O)(=O)C5(C#N)CC5)n4)CCOCC3)nc2)n1" . Reported pIC50: ≥ 7.00
